# system name: CO (Rattus norvegicus)
# Construct: the supernatant was saved as the source of enzymes; endogenous in cells; host or cells: RBL-1 (rat basophilic leukemia) cells
# Sequence (Q63921 27-602): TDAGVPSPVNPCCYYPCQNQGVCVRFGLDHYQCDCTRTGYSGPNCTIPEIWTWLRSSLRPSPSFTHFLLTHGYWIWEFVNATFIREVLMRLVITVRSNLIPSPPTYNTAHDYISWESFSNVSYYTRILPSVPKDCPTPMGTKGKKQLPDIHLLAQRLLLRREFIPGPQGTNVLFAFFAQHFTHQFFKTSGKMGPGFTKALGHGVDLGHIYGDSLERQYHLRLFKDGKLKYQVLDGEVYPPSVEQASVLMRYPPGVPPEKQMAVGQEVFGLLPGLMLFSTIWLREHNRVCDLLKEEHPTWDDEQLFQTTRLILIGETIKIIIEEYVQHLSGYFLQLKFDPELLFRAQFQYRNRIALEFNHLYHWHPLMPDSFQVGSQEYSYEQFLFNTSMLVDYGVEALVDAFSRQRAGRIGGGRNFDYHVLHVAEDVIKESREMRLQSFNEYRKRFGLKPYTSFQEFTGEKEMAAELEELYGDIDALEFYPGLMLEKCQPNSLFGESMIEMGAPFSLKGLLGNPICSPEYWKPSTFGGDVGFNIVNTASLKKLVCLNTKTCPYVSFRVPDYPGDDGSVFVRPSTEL
# test: Procedure II: CO activity in broken RBL-1 cells (homogenate supernatant)
# Type: biochemical
# condition description: 20 min; @ 10 .quadrature.M; RBL-1 broken cell supernatant; read-out: Proc. II CO % inhibition
Please go through the items and note down their inhibition at 10 µM.
Please append the unit to your numeric answer.

COc1ccc(-n2nc(C#CC(C)N(O)C(N)=O)cc2-c2ccc(Cl)cc2)cc1 (centres unmarked) [Cpd 6]: 0%
COc1ccc(-n2nc(C#CC(C)N(O)C(=O)CNCCCN(C)C)cc2-c2ccc(C)cc2)cc1 (centres unmarked) [Cpd 42]: 14%
COc1ccc(-n2nc(C#CC(C)N(O)C(=O)Cn3ccnc3)cc2-c2ccc(C)cc2)cc1 (centres unmarked) [Cpd 43]: 13%
CCC(C#Cc1cc(-c2ccc(Cl)cc2)n(-c2ccc(OC)cc2)n1)N(O)C(N)=O (centres unmarked) [Cpd 11]: 30%

Here are 4 molecules. What values of inhibition at 10 µM were reported for them?
1. CCc1ccc(-c2cc(C#CC(C)N(O)C(=O)CCC(=O)O)nn2-c2ccc(OC)cc2)cc1 (centres unmarked) [Cpd 33]
2. CCc1ccc(-c2cc(C#CC(C)N(O)C(=O)CCl)nn2-c2ccc(OC)cc2)cc1 (centres unmarked) [Cpd 31]
3. COc1ccc(-n2nc(C#CC(C(C)C)N(O)C(N)=O)cc2-c2ccc(Cl)cc2)cc1 (centres unmarked) [Cpd 12]
4. CCC(=O)N(O)C(C)C#Cc1cc(-c2ccc(Cl)cc2)n(-c2ccc(OC)cc2)n1 (centres unmarked) [Cpd 36]

RESULT:
1. 0%
2. 86%
3. 0%
4. 100%

Origin of the recorded values: patent US5925769A
